Hello, the source for this data is ChEMBL document CHEMBL4630903, in case you need it.

molecular target: hERG (KCNH2) (Homo sapiens, UniProt Q12809); assay: HERG_DOFETILIDE Eurofins SafetyScreen44 (BI); design: mode of action inhibitor; settings: probe [3H] dofetilide, compound concentration 10 uM, read-out: % Ctrl
Sequence (Q12809 whole entry): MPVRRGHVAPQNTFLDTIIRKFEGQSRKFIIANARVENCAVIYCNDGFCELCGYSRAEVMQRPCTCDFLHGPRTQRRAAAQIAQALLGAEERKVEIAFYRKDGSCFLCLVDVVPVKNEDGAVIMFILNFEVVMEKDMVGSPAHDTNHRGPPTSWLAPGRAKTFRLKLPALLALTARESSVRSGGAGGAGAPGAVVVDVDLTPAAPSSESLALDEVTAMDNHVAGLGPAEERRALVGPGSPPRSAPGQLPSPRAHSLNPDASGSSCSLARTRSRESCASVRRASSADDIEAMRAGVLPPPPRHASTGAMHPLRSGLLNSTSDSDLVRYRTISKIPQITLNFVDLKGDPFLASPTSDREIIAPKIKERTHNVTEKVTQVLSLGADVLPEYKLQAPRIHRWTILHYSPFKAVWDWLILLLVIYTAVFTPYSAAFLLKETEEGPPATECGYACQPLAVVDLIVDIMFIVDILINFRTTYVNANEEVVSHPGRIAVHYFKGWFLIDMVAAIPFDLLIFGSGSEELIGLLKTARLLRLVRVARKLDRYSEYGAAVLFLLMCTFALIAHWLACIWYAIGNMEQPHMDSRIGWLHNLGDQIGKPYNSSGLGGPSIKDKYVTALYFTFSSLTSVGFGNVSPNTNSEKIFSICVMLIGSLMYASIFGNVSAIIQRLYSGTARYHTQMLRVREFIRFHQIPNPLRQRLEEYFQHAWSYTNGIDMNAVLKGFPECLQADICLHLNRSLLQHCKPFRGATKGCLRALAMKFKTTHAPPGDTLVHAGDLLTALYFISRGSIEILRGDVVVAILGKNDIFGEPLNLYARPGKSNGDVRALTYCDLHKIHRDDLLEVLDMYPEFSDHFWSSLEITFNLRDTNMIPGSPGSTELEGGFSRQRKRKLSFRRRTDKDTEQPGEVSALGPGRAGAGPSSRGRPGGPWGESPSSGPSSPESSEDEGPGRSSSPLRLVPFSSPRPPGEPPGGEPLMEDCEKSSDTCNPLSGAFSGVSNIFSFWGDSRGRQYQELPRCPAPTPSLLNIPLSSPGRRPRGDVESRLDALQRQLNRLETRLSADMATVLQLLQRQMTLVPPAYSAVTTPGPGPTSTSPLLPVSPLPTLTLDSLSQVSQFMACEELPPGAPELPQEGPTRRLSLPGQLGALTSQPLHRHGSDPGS
attribute.measured: activity at 10 µM

Request: Please indicate activity at 10 µM recorded for Cc1c(NC(=O)COc2ccc(Cl)cc2C(=O)c2cc(F)cc(C(F)(F)F)c2)ccc(C(=O)O)c1F [BI 2540]
Result: 94% (not active)

---

molecular target: L-type Ca2+ channel (dihydropyridine site), Cav1.2 alpha-1C (Rattus norvegicus, UniProt P22002); test: CA+/DHPSI/R Eurofins SafetyScreen44 (BI); parameters: mode of action inhibitor; conditions: rat brain, probe [3H](+)PN200-110, compound concentration 10 uM, read-out: % Ctrl
Sequence (P22002 whole entry): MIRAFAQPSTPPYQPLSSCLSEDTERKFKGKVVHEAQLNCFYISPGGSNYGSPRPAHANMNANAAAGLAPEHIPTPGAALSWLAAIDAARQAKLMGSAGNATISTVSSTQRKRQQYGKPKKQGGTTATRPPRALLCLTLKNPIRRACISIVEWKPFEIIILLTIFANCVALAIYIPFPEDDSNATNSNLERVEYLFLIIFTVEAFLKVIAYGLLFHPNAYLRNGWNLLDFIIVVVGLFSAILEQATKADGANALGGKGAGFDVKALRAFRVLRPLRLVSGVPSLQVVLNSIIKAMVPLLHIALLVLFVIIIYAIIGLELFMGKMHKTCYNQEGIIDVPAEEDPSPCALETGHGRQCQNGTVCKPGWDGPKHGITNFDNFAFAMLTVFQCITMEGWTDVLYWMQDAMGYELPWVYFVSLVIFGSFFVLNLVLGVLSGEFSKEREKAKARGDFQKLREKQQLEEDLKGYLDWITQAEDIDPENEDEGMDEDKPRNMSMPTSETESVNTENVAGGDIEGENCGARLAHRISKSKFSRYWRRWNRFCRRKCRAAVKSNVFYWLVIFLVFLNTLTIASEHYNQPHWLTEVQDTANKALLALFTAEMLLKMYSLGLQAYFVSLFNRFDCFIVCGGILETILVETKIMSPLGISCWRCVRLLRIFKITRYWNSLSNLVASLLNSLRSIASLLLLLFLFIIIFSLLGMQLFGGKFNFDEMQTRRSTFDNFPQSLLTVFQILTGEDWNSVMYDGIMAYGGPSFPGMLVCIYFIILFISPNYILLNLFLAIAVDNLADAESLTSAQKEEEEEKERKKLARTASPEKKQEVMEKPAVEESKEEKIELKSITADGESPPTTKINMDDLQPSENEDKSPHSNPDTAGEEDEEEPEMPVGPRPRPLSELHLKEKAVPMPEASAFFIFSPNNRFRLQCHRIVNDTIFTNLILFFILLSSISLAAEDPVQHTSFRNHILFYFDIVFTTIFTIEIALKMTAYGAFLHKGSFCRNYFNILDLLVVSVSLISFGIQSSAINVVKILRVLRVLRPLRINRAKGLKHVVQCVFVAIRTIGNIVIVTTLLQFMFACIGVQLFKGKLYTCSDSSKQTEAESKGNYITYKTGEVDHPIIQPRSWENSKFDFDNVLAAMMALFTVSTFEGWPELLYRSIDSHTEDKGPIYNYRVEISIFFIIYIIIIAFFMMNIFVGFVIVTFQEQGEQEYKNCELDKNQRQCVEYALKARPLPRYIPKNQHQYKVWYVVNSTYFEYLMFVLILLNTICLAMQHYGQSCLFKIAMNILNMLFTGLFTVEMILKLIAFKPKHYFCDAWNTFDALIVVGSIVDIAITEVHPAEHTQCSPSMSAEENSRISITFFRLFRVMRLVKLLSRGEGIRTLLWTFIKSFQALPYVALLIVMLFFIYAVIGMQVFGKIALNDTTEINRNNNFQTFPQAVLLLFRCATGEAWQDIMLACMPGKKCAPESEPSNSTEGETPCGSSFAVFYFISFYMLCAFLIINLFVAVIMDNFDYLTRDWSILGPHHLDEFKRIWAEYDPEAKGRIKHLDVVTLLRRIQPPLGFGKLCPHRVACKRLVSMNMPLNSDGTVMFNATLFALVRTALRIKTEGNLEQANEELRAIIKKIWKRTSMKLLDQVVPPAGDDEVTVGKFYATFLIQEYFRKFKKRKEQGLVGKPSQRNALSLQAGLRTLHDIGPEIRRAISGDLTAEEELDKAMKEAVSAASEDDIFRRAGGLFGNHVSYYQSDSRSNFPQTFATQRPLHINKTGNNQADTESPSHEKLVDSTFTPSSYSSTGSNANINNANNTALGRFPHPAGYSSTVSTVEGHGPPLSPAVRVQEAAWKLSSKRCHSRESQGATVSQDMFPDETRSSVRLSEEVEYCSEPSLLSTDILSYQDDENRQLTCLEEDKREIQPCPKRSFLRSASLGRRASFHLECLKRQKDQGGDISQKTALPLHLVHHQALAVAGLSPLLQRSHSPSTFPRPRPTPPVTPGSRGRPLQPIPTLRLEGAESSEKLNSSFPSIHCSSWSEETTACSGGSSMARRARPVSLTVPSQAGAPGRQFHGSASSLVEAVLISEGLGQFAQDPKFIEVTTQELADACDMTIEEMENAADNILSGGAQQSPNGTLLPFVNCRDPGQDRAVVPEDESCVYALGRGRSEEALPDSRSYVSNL
attribute.measured: activity at 10 µM

Request: Please indicate activity at 10 µM recorded for Cc1c(NC(=O)COc2ccc(Cl)cc2C(=O)c2cc(F)cc(C(F)(F)F)c2)ccc(C(=O)O)c1F
Result: 96% (not active)

---

target: MAO-A (Rattus norvegicus); assay: MAO-A_ANTAG Eurofins SafetyScreen44 (BI); set-up: mode of action antagonist; scale not given: the % may be the effect or the level left; details: compound concentration 10 uM, read-out: % Ctrl
Sequence (P21396 whole entry): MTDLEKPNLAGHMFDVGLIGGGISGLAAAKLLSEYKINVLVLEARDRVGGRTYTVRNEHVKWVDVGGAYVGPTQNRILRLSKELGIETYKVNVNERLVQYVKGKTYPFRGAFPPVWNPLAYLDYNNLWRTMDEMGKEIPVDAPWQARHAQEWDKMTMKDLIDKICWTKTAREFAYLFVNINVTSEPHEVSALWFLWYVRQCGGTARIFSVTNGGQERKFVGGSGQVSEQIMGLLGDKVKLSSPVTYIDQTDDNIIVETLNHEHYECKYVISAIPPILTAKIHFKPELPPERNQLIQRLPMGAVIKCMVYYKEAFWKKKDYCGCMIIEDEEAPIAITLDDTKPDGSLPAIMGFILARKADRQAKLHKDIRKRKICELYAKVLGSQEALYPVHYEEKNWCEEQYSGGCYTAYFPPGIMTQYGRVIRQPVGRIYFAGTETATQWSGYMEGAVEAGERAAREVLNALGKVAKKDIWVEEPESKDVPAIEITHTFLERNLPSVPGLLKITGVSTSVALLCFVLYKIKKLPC
attribute.measured: activity at 10 µM

Request: State activity at 10 µM on MAO-A (Rattus norvegicus). Entry: Cc1c(NC(=O)COc2ccc(Cl)cc2C(=O)c2cc(F)cc(C(F)(F)F)c2)ccc(C(=O)O)c1F [BI 2540]
Result: 104% (not active)
